Tested on: T. gondii RH strain (RH-Tub-eYFP) tachyzoites
Measurement Description: microbe, parasite or virus in culture
Format: cell-based, Toxoplasma gondii
Condition Parameters: T. gondii RH, 72 h, library screen at 2 μg/mL, % growth, replicate 2
Readout: Tg_72h_%Growth_Rep2 (%)
State the answer as a number, implicitly in %.

For the compound Cc1cc(O)c(O)c2oc(=O)c3c(O)cc(O)cc3c12 , what Tg_72h_%Growth_Rep2 is on record?
87.83

For the compound Cc1cc(O)cc(=O)o1 , what Tg_72h_%Growth_Rep2 is on record?
93.67

For the compound CCC(C(=O)C(C)C(O)C(C)CCc1ccc(C)c(O)c1C(=O)O)C1OC(CC)(C2CCC(O)(CC)C(C)O2)CC1C (centres unmarked) , what Tg_72h_%Growth_Rep2 is on record?
-0.33

For the compound COc1ccc(/C=C/C(=O)O)cc1O , what Tg_72h_%Growth_Rep2 is on record?
92.18

For the compound CCCCCC(O)C1C(=O)OC(C)C(O)C=CC=CC=CC=CC=C(C)C(O)C(O)C(O)CC(O)CC(O)CC(O)CC(O)CC1O (centres unmarked) , what Tg_72h_%Growth_Rep2 is on record?
85.53

For the compound CC(C=CC1OC(=O)C=CC1C)=CC(C)CC=CC(C)=CC(C)C(=O)C(C)C(O)C(C)CC(C)=CC(=O)O (centres unmarked) , what Tg_72h_%Growth_Rep2 is on record?
-0.11

For the compound COC1=C(OC)C(=O)[C@@H](C)[C@H](C)C1=O , what Tg_72h_%Growth_Rep2 is on record?
97.35

For the compound O=c1cc(CO)occ1O , what Tg_72h_%Growth_Rep2 is on record?
90.68

For the compound COc1ccc2c(c1OC)C(=O)OC2C1c2cc3c(cc2CCN1C)OCO3 (centres unmarked) , what Tg_72h_%Growth_Rep2 is on record?
95.07

For the compound CCC(C)C1OC2(CCC1C)CC1CC(CC=C(C)C(OC3CC(OC)C(O)C(C)O3)C(C)C=CC=C3COC4C(O)C(C)=CC(C(=O)O1)C34O)O2 (centres unmarked) , what Tg_72h_%Growth_Rep2 is on record?
88.13

For the compound CCCC(=O)OC1C(C)OC(OC2C(C)OC(OC3C(CC=O)CC(C)C(O)C=CC=CCC(C)OC(=O)CC(O)C3OC)C(O)C2N(C)C)CC1(C)O (centres unmarked) , what Tg_72h_%Growth_Rep2 is on record?
21.24

For the compound COC(=O)C1=COC(C)C2CN3CCc4c([nH]c5cc(OC)c(OC)cc45)C3CC12 (centres unmarked) , what Tg_72h_%Growth_Rep2 is on record?
105.99

For the compound CNC1=NC(=O)C(C(C)c2c[nH]c3ccccc23)O1 (centres unmarked) , what Tg_72h_%Growth_Rep2 is on record?
47.91

For the compound COc1cc(O)c2c(c1)C=CCC(O)C(O)C(=O)C=CCC(C)OC2=O (centres unmarked) , what Tg_72h_%Growth_Rep2 is on record?
85.36

Source: paper PMC12396409
